These data points were gathered from patent US8367843B2.

test: Concentration of unchanged compound in urine in rat; format: in vivo; conditions: 3 mg/kg oral, fasted male Wistar/ST rats, urine collected for 4 hours after administration, HPLC
Readout Type: Concentration of unchanged compound in urine (µM)

| Compound | Readout Number |
| --- | --- |
| N#Cc1cc(C(=O)N2CS(=O)(=O)c3ccccc32)cc(C2CC2)c1O | 3.9 |
| O=C(c1cc(Cl)c(O)c(Cl)c1)N1CS(=O)(=O)c2ccccc21 | 9.8 |
| CN(C)C(=O)c1cc(C(=O)N2CS(=O)(=O)c3ccccc32)cc(C(F)(F)F)c1O | 30.6 |
| N#Cc1cc(C(=O)N2CS(=O)(=O)c3ccccc32)cc(C(F)(F)F)c1O | 51.8 |

I. CC(C)Sc1cc(C(=O)N2CS(=O)(=O)c3ccccc32)cc(C#N)c1O
II. O=C(c1cc(Cl)c(O)c(C(F)(F)F)c1)N1CS(=O)(=O)c2ccccc21
III. CSc1cc(C(=O)N2CS(=O)(=O)c3ccccc32)cc(C#N)c1O
IV. CCSc1cc(C(=O)N2CS(=O)(=O)c3ccccc32)cc(C#N)c1O
V. N#Cc1cc(C(=O)N2CS(=O)(=O)c3ccccc32)cc(Cl)c1O
Task: Order the records, beginning with the lowest Concentration of unchanged compound in urine and ending with the highest. Form entry: labels listed in requested order.
Result: II, I, IV, III, V

###

assay: Concentration of unchanged compound in urine in rat; assay type: in vivo; conditions: 3 mg/kg oral, fasted male Wistar/ST rats, urine collected for 4 hours after administration, HPLC
Readout Type: Concentration of unchanged compound in urine (µM)

Reference set, count: 4
| Molecule | Result Units | Readout Number |
| --- | --- | --- |
| N#Cc1cc(C(=O)N2CS(=O)(=O)c3ccc(C(F)(F)F)cc32)cc(C(F)(F)F)c1O | µM | 16.4 |
| CCc1oc2ccccc2c1C(=O)c1cc(Br)c(O)c(Br)c1 [Benzbromarone, reference compound] | µM | 0 |
| CCc1cc(C(=O)N2CS(=O)(=O)c3ccccc32)cc(C#N)c1O | µM | 15.8 |
| C#Cc1cc(C(=O)N2CS(=O)(=O)c3ccccc32)cc(C#N)c1O | µM | 119 |

P. CSc1cc(C(=O)N2CS(=O)(=O)c3ccccc32)cc(Cl)c1O
Q. O=C(c1cc(F)c(O)c(Cl)c1)N1CS(=O)(=O)c2ccccc21
R. N#Cc1cc(C(=O)N2CSc3ccccc32)cc(C(F)(F)F)c1O
S. CCCN(CCC)S(=O)(=O)c1ccc(C(=O)O)cc1 [Probenecid, reference compound]
Task: Ordering criterion: Concentration of unchanged compound in urine; begin with the maximum. Form entry: labels listed in requested order.
Result: Q, P, R, S
(Q: 55.2 µM, P: 1.9 µM, R: 1.1 µM, S: 0 µM)
